- System: human Factor 7 mRNA
- test_protocol: Antisense inhibition of human Factor 7 mRNA in HepB3 cells, 50 nM antisense oligonucleotide, lipofectin
- Format: cell-based
- measurement_parameters: Table 1, 50 nM, lipofectin, approximately 24 hours, relative to untreated control cells
Strand notation (5' to 3'): a small letter for the sugar, then the base; units joined by * are phosphorothioate-linked, units joined directly phosphodiester-linked; [ ] holds rarer units or linkages, { } end groups; capitals alone tell only the bases. e = 2'-O-(2-methoxyethyl) (MOE); [5mC] = 5-methylcytosine; d = 2'-deoxy (DNA)
recorded_endpoint: % Inhibition (%)
Your answer should be a plain number; it is taken to be in %.

Sample records with % Inhibition:
substance	tgt	experimental_result
407927 (antisense eA*eG*eG*eT*eA*dA*dG*dG*dA*dG*dG*d[5mC]*dT*d[5mC]*dA*eG*e[5mC]*eT*eG*eG) [compound 407927]	human Factor 7 mRNA	55
407951 (antisense eA*eA*e[5mC]*eA*eG*d[5mC]*dT*dT*dT*dT*dG*dT*dT*dT*dT*eT*eA*eA*eA*eA) [compound 407951]	human Factor 7 mRNA	0
407615 (antisense eG*eA*e[5mC]*eA*e[5mC]*d[5mC]*d[5mC]*d[5mC]*dG*dT*d[5mC]*dT*dG*d[5mC]*d[5mC]*eA*eG*e[5mC]*eA*eG) [compound 407615]	human Factor 7 mRNA	65

stdin: Entry under review: 407617 (antisense eT*e[5mC]*e[5mC]*eA*e[5mC]*dA*dT*dG*dG*dA*dT*dA*dT*dT*d[5mC]*eA*eA*e[5mC]*eT*eG) [compound 407617] . Reported % Inhibition?
stdout: 67

Just for reference, patent US9029337B2 is where these values come from.
